Target: hERG (Homo sapiens (Human), UniProt Q12809)
Sequence (Q12809 whole entry): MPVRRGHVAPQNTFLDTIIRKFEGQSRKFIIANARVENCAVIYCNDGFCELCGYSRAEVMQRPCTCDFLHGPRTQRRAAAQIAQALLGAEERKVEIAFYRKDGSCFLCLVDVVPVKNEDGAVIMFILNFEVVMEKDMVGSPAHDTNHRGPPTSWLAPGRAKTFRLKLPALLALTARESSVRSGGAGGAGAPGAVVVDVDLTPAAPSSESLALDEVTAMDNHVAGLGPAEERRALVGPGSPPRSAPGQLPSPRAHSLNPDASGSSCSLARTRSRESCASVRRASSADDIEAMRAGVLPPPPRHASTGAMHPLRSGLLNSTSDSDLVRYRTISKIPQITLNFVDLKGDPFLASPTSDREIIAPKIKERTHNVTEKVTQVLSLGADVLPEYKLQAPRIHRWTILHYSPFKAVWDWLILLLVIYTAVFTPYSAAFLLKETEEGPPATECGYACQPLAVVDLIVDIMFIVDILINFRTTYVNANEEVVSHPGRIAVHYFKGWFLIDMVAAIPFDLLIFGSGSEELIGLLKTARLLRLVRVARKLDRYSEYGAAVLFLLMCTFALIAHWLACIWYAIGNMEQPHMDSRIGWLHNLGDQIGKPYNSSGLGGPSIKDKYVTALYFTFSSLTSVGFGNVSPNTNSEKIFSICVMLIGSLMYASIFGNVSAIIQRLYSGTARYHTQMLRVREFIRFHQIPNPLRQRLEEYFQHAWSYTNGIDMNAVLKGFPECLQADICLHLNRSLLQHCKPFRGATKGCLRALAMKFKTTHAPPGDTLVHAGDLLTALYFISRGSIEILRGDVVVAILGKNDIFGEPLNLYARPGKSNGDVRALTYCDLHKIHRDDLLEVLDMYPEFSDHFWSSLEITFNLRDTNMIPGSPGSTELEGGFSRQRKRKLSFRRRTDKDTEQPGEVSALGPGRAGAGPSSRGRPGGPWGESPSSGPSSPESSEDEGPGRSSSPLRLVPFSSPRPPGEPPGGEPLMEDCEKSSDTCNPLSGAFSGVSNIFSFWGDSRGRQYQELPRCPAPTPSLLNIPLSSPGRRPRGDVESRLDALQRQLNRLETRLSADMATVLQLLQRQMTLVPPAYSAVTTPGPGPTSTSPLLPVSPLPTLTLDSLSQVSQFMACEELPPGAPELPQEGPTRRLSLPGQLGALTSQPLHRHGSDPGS
Experiment: Patch clamp assay (hERG tail currents, whole-cell)
Format: cell-based
Conditions: 30 μM compound, hERG transfected HEK 293 cells
Assay Endpoint: hERG % Remaining 30 μM

The following molecules have reported results that may help.
Molecule | Observed
CC(C)N(C(=O)c1cc(F)ccc1Oc1cncnc1N1CC2(CCN(C[C@@H]3CC[C@@H](NS(=O)(=O)c4cnn(C)c4Cl)CO3)CC2)C1)C(C)C [Compound 82] | + (“+” means <33%)
CC(C)N(CC#N)C(=O)c1cc(F)ccc1Oc1cncnc1N1CC2(CCN(C[C@@H]3CC[C@@H](NS(=O)(=O)N(C)C)CO3)CC2)C1 [Compound 181] | +++ (“+++” means ≥66%)
C[C@@H]1COC[C@@H](C)N1C(=O)c1cc(F)ccc1Oc1cncnc1N1CC2(CCN(C[C@@H]3CC[C@@H](NS(=O)(=O)N4CCC[C@H]4C)CO3)CC2)C1 [Compound 208] | +++ (“+++” means ≥66%)
CCN(C(=O)c1cc(F)ccc1Oc1cncnc1N1CC2(CCN(C[C@@H]3CC[C@@H](NS(=O)(=O)C4CC4)CO3)CC2)C1)C(C)C [Compound 4] | +++ (“+++” means ≥66%)
CNS(=O)(=O)N[C@@H]1CC[C@@H](CN2CCC3(CC2)CN(c2ncncc2Oc2ccc(F)cc2C(=O)N(C(C)C)C(C)C)C3)OC1 [Compound 143] | +++ (“+++” means ≥66%)
CCN(C(=O)c1cc(F)ccc1Oc1cncnc1N1CC2(CCN(C[C@@H]3CC[C@@H](NS(=O)(=O)c4ccccc4OC)CO3)CC2)C1)C(C)C [Compound 65] | + (“+” means <33%)
CC(C)N(C(=O)c1cc(F)ccc1Oc1cncnc1N1CC2(CCN(C[C@@H]3CC[C@@H](NS(=O)(=O)C4CC4)CO3)CC2)C1)C1CC1 [Compound 21] | + (“+” means <33%)
CCNS(=O)(=O)N[C@@H]1CC[C@@H](CN2CCC3(CC2)CN(c2ncncc2Oc2ccc(F)cc2C(=O)N2[C@H](C)COC[C@H]2C)C3)OC1 [Compound 125] | +++ (“+++” means ≥66%)

Kindly note the recorded hERG % Remaining 30 μM for CCN(C(=O)c1cc(F)ccc1Oc1cncnc1N1CC2(CCN(C[C@@H]3CC[C@@H](NS(=O)(=O)NC)CO3)CC2)C1)C(C)C [Compound 76] , which is +++ (“+++” means ≥66%)

Please fill in: hERG % Remaining 30 μM reported for CC(C)N(C(=O)c1cc(F)ccc1Oc1cncnc1N1CC2(CCN(C[C@@H]3CC[C@@H](NS(N)(=O)=O)CO3)CC2)C1)C(C)C [Compound 90] = +++ (“+++” means ≥66%)

// field: hERG % Remaining 30 μM; key: Cc1nc(S(=O)(=O)N[C@@H]2CC[C@@H](CN3CCC4(CC3)CN(c3ncncc3Oc3ccc(F)cc3C(=O)N3[C@H](C)COC[C@H]3C)C4)OC2)cs1 [Compound 122] ; value = +++ (“+++” means ≥66%)

# hERG % Remaining 30 μM of CC(C)N(CC(F)F)C(=O)c1cc(F)ccc1Oc1cncnc1N1CC2(CCN(C[C@@H]3CC[C@@H](NS(=O)(=O)c4ccn(C)n4)CO3)CC2)C1 [Compound 103] = +++ (“+++” means ≥66%)
